# Tested on: PC3 (p53−) (Prostate Adenocarcinoma)
# assay_info: Cell viability analysis, prostate cancer PC3
# Assay type: cell-based, human
# condition_label: Homo sapiens, 72 h, drug 10 μM, 72 hours, WST-1, OD450 nm; read-out: cell viability (survival rate), PC3
Hi! Could you tag entries with viability at 10 µM below 50% as Y, and those at or above as N? Much appreciated.

Inquiry: viability at 10 µM strictly < 50% for this compound? COc1c(N2CCNC(C)C2)c(F)cc2c(=O)c(C(=O)O)cn(C3CC3)c12 (stereo not shown)
Reply text: N

Inquiry: Record: CC(C)(O/N=C(\C(=O)N[C@@H]1C(=O)N2C(C(=O)[O-])=C(C[n+]3ccccc3)CS[C@H]12)c1csc(N)n1)C(=O)O [Ceftazidime Pentahydrate]
Reply text: Y

Inquiry: Record: NCC[C@H](O)C(=O)N[C@@H]1C[C@H](N)[C@@H](O[C@H]2O[C@H](CN)[C@@H](O)[C@H](O)[C@H]2O)[C@H](O)[C@H]1O[C@H]1O[C@H](CO)[C@@H](O)[C@H](N)[C@H]1O [Amikacin hydrate]
Reply text: N

Inquiry: Record: CC(C)/N=c1\cc2n(-c3ccc(Cl)cc3)c3ccccc3nc-2cc1Nc1ccc(Cl)cc1
Reply text: N

Inquiry: Record: CN(C/C=C/C#CC(C)(C)C)Cc1cccc2ccccc12
Reply text: N

Inquiry: Record: CCCCCCCCCCCC[N+](C)(C)CCOc1ccccc1 [Domiphen Bromide]
Reply text: Y

Inquiry: Record: CCCc1cc(C(N)=S)ccn1 [Protionamide (Prothionamide), Protionamide]
Reply text: Y
